// provenance: paper PMC11050014

Attribute: melting point

INPUT_SMILES: N#C[C@H](CCc1ccccc1)NC(=O)CCn1ccc2ccccc21
RESULT: 155 to 156 °C
--
INPUT_SMILES: Cc1cn(CC(=O)N[C@H](C#N)CCc2ccccc2)c2ccccc12
RESULT: 114 to 115 °C
--
INPUT_SMILES: Cc1cn(CCC(=O)N[C@H](C#N)CCc2ccccc2)c2ccccc12
RESULT: 130 to 132 °C

Query melting point for `Cc1cc2ccccc2n1CC(=O)N[C@H](C#N)CCc1ccccc1`
131 to 133 °C
